Target: T1, secretory phospholipase A2 (sPLA2) (Homo sapiens, UniProt P14555 P14555:21-144)
T1 sequence: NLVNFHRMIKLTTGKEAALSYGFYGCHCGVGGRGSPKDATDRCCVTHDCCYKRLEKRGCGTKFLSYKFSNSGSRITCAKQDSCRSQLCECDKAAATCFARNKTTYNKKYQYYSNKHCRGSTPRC
Test: filter; biphasic, Kd2 840 nM, mole fraction 0.50; TBSC, 37 C
Settings: tags: supplied by Eli Lilly
metric: Kd (nM)

[[record]]
binder = "87F (ssRNA, 2'-F all C and U) RNA: GGGAGCUCAGAAUAAACGCUCAAGCUCUGGGAUGAUGCCCACUGUCCAGCAUCUUCGACAUGAGGCCCGGAUCCGGC"
metric = "Kd"
unit_descriptor = "nM"
observed_value = 1.2

